Tested on: SK-OV-3 ovarian
Experiment: NCI tumour cell line growth inhibition, 48 h
Assay metric: TGI

molecule="Clc1ccc(C2C3COc4ccccc4C3=NN2c2ccccc2)cc1 (stereo unspecified)" experimental_system="SK-OV-3 ovarian" test_value="> 100 µM"
molecule=COC1(OC)C(N(C)C)=C(Cl)C(=O)/C1=C/C=O experimental_system="SK-OV-3 ovarian" test_value="> 100 µM"
molecule=Cc1ccc(NC(=O)CCc2cc(C(C)(C)C)nc(=S)[nH]2)cc1C experimental_system="SK-OV-3 ovarian" test_value="> 100 µM"

Prompt: Fill in: TGI of C#C[C@]1(O)CCC2C3CCc4cc(O)ccc4C3CC[C@@]21C (stereo partly specified) is ___
Response: 49.6 µM

Prompt: Fill in: TGI of "NCCNc1c2c(c(NCCN)c3[nH]ccc13)C(=O)c1ccccc1C2=O" is ___
Response: 5.52 µM

Prompt: Fill in: TGI of COc1cc2c(c(OC)c1OC)-c1ccc(SC)c(=O)cc1C(NC=O)CC2 (stereo unspecified) is ___
Response: 63.9 µM

Prompt: Fill in: TGI of "C/C(Cc1ccccc1)=N\NC(N)=S" is ___
Response: > 100 µM

Prompt: Fill in: TGI of CCOC(=O)C12OC(CCC1=O)C(C(=O)OC)=C2C(=O)OC (stereo unspecified) is ___
Response: > 10 µM

###

Listed compounds paired with reported TGI
Test system: NCI-H23 lung
Experiment: NCI tumour cell line growth inhibition, 48 h

Prompt: Fill in: TGI of "CCCCCCOC(=O)/C=C/[C@]1(CO)C/C(=C/CC(C(C)C)C(C)C)C(=O)O1" is ___
Response: 25 µM

Prompt: Fill in: TGI of CC(=O)OC12C=CC(=O)N1c1ccccc1C(=O)O2 (centres undefined) is ___
Response: > 100 µM

Prompt: Fill in: TGI of "CC(=O)c1c(C)n([O-])c2cc(Cl)c(Cl)cc2[n+]1=O" is ___
Response: > 100 µM

Prompt: Fill in: TGI of CCOC(=O)C12OC(CCC1=O)C(C(=O)OC)=C2C(=O)OC (centres undefined) is ___
Response: > 10 µM

Prompt: Fill in: TGI of COc1cc2c(c(OC)c1OC)-c1ccc(SC)c(=O)cc1C(NC=O)CC2 (centres undefined) is ___
Response: 50 µM

Prompt: Fill in: TGI of COC(=O)C(Cc1nc2ccc(Cl)cc2[nH]c1=O)/C(=N\N)C(=O)Nc1cc(C)c(Cl)cc1S(=O)(=O)O (centres undefined) is ___
Response: > 100 µM

Prompt: Fill in: TGI of O=C(O)CCC(NC(=O)c1ccc(Nc2nc3cc(C(F)(F)F)ccc3nc2-c2ccccc2)cc1)C(=O)O (centres undefined) is ___
Response: > 100 µM

Prompt: Fill in: TGI of "O=C1/C(=C/c2cccc(Cl)c2Cl)N=C(c2ccccc2)N1C1CC1" is ___
Response: 19.5 µM

Prompt: Fill in: TGI of CCC(/C=C/C1OC(=O)C=CC1C)=C\C(C)C/C=C/C(C)=C/C(C)C(=O)C(C)C(O)C(C)C/C(C)=C/C(=O)O (centres undefined) is ___
Response: 3.87 µM

###

Tested on: ACHN renal
Experiment: NCI tumour cell line growth inhibition, 48 h
Listed molecules paired with reported TGI

molecule="CCN1CCC(O)(c2ccc(OC)cc2)C(C(=O)c2ccc(OC)cc2)C1 (stereo unspecified)" assay_metric=TGI test_value="30.1 µM"
molecule=COc1ccc(-[n+]2nc(S(=O)(=O)O)c(/C=C/c3ccc(N(C)C)cc3)cc2C#N)cc1 assay_metric=TGI test_value="> 100 µM"
molecule=C[C@H](CCC(=O)O)[C@H]1CC[C@H]2[C@@H]3CC[C@@H]4C[C@H](O)CC[C@]4(C)[C@H]3C[C@H](O)[C@]12C assay_metric=TGI test_value="> 100 µM"
molecule="COc1cc(F)ccc1-c1ncnc(Nc2cccc(CS(C)(=N)=O)c2)n1 (stereo unspecified)" assay_metric=TGI test_value="> 100 µM"
molecule=[Cl][Hg][c]1cc[c]([Hg][Cl])o1 assay_metric=TGI test_value="3.39 µM"

Prompt: Fill in: TGI of CC(O)C1(CNc2cc(Cl)nc(N)n2)CCC1 (stereo unspecified) is ___
Response: > 100 µM

###

Tested on: MDA-MB-231 breast
Assay: NCI tumour cell line growth inhibition, 48 h; in the data active means GI50 below about 0.43 µM; inactive means the rest
Outcome (select one): 1 (yes) for active, 0 (no) for inactive

The examples below pair each entry with its known result.
compound=C=C(C)[C@@H]1CC[C@]2(C)[C@H](CC=C3[C@@H]4CC(C)(C)CC[C@]4(C(N)=O)CC[C@]32C)[C@@]1(C)CCC#N discrete_label="0 (no)"
compound=CCOC(=O)C(Cc1ccc(CCCC(=O)NCCC(=O)Nc2ccc3nc(C)sc3c2)cc1)C(=O)OCC discrete_label="0 (no)"
compound="CCCN1C(=O)N(CCC)C2C1NC(=S)N2/N=C/C=C/c1ccccc1OC (configuration not stated)" discrete_label="0 (no)"
compound=COc1c(OC[C@H](O)CN2CCOCC2)ccc2c3n(c(=NC(=O)c4cccnc4C)nc12)CCN3 discrete_label="0 (no)"
compound=COc1ccc(C(=O)/C=C/c2cc(-c3cc(OC)c(OC)c(OC)c3)n[nH]2)cc1OC discrete_label="0 (no)"

Prompt: So what was the verdict on "COc1ccc(-c2nc3ccc(-c4nc5ccc(N6CCN(c7ccccc7)CC6)cc5[nH]4)cc3[nH]2)cc1OC" in this test?
Response: 0 (no)

Prompt: So what was the verdict on "CN(C)CC[PH+](c1ccccc1)c1ccccc1.CN(C)CC[PH+](c1ccccc1)c1ccccc1.[Cl-].[Pd+2]" in this test?
Response: 0 (no)

Prompt: So what was the verdict on "Cn1cc(-c2csc(-c3c[nH]c4ccc(F)cc34)n2)c2cnccc21" in this test?
Response: 0 (no)

Prompt: So what was the verdict on "COc1cc2c3c(n(C)c(=O)c2cc1OC)-c1cc2c(cc1/C3=C\CN)OCO2" in this test?
Response: 0 (no)

Prompt: So what was the verdict on "CC(C)Oc1ccc2cc(-c3nn(CC4CCNCC4)c4ncnc(N)c34)ccc2c1" in this test?
Response: 0 (no)

###

System: IGROV1 ovarian
Experiment: NCI tumour cell line growth inhibition, 48 h; in the data active = GI50 below about 0.43 µM; inactive = the rest
Outcome (select one): 1.0 = active, 0.0 = inactive

The examples below pair each entry with its known result.
compound="O=C1OCC2=C1C(c1cccc(Br)c1)c1cc3c(cc1N2CCO)CCC3 (centres undefined)" experimental_system="IGROV1 ovarian" discrete_label=1.0
compound=NCCNc1c2c(c(NCCN)c3[nH]ccc13)C(=O)c1ccccc1C2=O experimental_system="IGROV1 ovarian" discrete_label=0.0
compound=Cn1cc(-c2csc(-c3c[nH]c4ccc(F)cc34)n2)c2cnccc21 experimental_system="IGROV1 ovarian" discrete_label=0.0
compound=Cc1ccc(NC(=O)CC2CC2)cc1-c1ccc(C(=O)NCC2CC2)cc1 experimental_system="IGROV1 ovarian" discrete_label=0.0
compound=O=C(Nc1ccncc1)C(=O)c1cn(S(=O)(=O)c2ccc(F)cc2)c2ccccc12 experimental_system="IGROV1 ovarian" discrete_label=0.0

Prompt: So what was the verdict on "Cc1ncc(C(=O)Nc2ccc(CN3CCN(C)CC3)c(C(F)(F)F)c2)cc1C#Cc1cnc(N)c2ccncc12" in this test?
Response: 1.0

Prompt: So what was the verdict on "O=C1Nc2ccccc2/C1=N\[O-].O=C1Nc2ccccc2/C1=N\[O-].[Cu+2]" in this test?
Response: 0.0

Prompt: So what was the verdict on "COc1cc(-c2cc(-c3cc4c([nH]c5ccccc54)c(-c4cc(OC)c(OC)c(OC)c4)n3)cc(-c3ccccc3)n2)cc(OC)c1OC" in this test?
Response: 0.0

Prompt: So what was the verdict on "CS(=O)(=O)CCNCc1nc(-c2ccc3ncnc(Nc4ccc(OCc5cccc(C(F)(F)F)c5)cc4)c3c2)cs1" in this test?
Response: 0.0

###

Listed molecules paired with reported TGI
Test system: HOP-92 NSCLC
Test: NCI tumour cell line growth inhibition, 48 h

Here are 4 molecules together with their reported answers.
molecule=N#Cc1c(-c2ccc(Cl)cc2Cl)nc2[nH][nH]c(=S)n2c1=O test_value="> 100 µM"
molecule=COC1(OC)C(N(C)C)=C(Cl)C(=O)/C1=C/C=O test_value="> 100 µM"
molecule=COc1ccc(/C=C2/N=C(c3ccccc3)N(c3c(C)n(C)n(-c4ccccc4)c3=O)C2=O)cc1OC test_value="> 100 µM"
molecule="OCC1OC(c2nc(C3=NCCCN3)cs2)C(O)C1O (stereo not given)" test_value="> 100 µM"

Turning now to a further molecule:
Prompt: Item: "COc1ccc2c(c1)C(=O)c1c-2c(N2CCN(C(=O)CNCCNCCO)CC2)nc2ccccc12" Test system: HOP-92 NSCLC Read-out: TGI Value: ?
Response: 9.68 µM
